Assay: Half life in iv dosed rat
Type: ADME, organism-based
Conditions: in vivo
measure_name: half-life (h)
Numbers only, in h.

Here is how some compounds turned out for half-life.
{"columns": ["chemical_smiles", "measure_unit", "half-life"],
 "data": [
  ["COc1cc2c(Oc3ccc(-c4cnc(Nc5ccc(F)cc5)n(C)c4=O)nc3)ccnc2cc1OCCCN1CCOCC1", "h", 2.4],
  ["COc1cc2c(Oc3ccc(-c4cnc(Nc5ccc(F)cc5)n(C)c4=O)cc3F)ccnc2cc1OCCCN1CCOCC1", "h", 2.4]
]}

With those in mind, consider the next compound.
Problem: So what's the measured half-life for this one? COc1cc2c(Oc3ccc(-c4cnc(Cc5ccccc5)n(C)c4=O)cc3F)ccnc2cc1OCCCN1CCOCC1
Result: 2.4

---

Target: cAMP-dependent protein kinase catalytic subunit alpha (Homo sapiens)
Experiment: Inhibition of PKAalpha
pIC50: −log10 of the molar value.
Hi there, I'd appreciate the recorded pIC50 for every entry that follows.

{"columns": ["chemical_smiles", "measure_name", "reported_result"],
 "data": [
  ["COc1cc2c(Oc3ccc(-c4cnc(Cc5ccccc5)n(C)c4=O)cc3F)ccnc2cc1OCCCN1CCOCC1", "pIC50", "< 4.00"],
  ["COc1cc2c(Oc3ccc(-c4cnc(Nc5ccc(F)cc5)n(C)c4=O)nc3)ccnc2cc1OCCCN1CCOCC1", "pIC50", "< 4.60"]
]}

Let us examine a further case.
Problem: Could you share which pIC50 value was measured for COc1cc2c(Oc3ccc(-c4cnc(Nc5ccc(F)cc5)n(C)c4=O)cc3F)ccnc2cc1OCCCN1CCOCC1 ?
Result: < 4.00

---

Experiment: Bioavailability in iv dosed rat
Type: ADME, organism-based
Settings: in vivo
Give measured bioavailability for each item. Keep answers brief.
One number for each entry, in %.

Solved cases (2 shown):
{"columns": ["chemical_smiles", "bioavailability [%]"],
 "data": [
  ["COc1cc2c(Oc3ccc(-c4cnc(Nc5ccc(F)cc5)n(C)c4=O)nc3)ccnc2cc1OCCCN1CCOCC1", 48],
  ["COc1cc2c(Oc3ccc(-c4cnc(Nc5ccc(F)cc5)n(C)c4=O)cc3F)ccnc2cc1OCCCN1CCOCC1", 34]
]}

--- query ---
Problem: Which bioavailability reading was recorded for the molecule COc1cc2c(Oc3ccc(-c4cnc(Cc5ccccc5)n(C)c4=O)cc3F)ccnc2cc1OCCCN1CCOCC1 ?
Result: 100

---

Target: Angiopoietin-1 receptor (Homo sapiens, UniProt Q02763)
Sequence (Q02763 whole entry): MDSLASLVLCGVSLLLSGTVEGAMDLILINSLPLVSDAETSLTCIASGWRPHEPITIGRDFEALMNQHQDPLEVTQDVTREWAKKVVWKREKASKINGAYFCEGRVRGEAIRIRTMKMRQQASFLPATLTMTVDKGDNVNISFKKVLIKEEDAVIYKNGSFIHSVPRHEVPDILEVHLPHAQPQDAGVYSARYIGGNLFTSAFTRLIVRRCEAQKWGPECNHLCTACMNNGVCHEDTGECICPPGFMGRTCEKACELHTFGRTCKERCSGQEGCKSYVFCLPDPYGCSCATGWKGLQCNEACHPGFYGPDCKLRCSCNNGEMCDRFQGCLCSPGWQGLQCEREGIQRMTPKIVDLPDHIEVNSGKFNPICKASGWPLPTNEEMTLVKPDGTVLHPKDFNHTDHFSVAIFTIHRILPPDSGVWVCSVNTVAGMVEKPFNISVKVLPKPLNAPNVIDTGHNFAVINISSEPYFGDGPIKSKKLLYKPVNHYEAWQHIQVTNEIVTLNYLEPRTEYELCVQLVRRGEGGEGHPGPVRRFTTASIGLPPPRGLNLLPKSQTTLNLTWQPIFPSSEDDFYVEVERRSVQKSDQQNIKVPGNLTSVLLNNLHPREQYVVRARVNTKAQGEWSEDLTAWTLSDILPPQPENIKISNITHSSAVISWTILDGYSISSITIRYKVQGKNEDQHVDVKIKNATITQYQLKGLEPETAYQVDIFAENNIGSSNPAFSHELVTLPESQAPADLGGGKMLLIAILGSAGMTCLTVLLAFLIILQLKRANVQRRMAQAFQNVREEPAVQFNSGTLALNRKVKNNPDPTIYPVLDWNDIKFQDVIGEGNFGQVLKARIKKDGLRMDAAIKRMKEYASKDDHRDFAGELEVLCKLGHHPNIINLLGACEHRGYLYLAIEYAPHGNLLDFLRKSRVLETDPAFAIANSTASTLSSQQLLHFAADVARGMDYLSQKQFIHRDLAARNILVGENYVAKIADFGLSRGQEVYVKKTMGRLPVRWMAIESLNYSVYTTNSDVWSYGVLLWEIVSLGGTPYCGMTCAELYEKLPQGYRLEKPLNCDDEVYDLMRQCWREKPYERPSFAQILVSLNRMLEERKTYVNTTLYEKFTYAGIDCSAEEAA
measure_name: IC50 (nM)
One number for each entry, in nM.

{"columns": ["chemical_smiles", "IC50 / nM"],
 "data": [
  ["COc1cc2c(Oc3ccc(-c4cnc(Nc5ccc(F)cc5)n(C)c4=O)cc3F)ccnc2cc1OCCCN1CCOCC1", 26]
]}

Now consider the entry below.
Problem: Quick check: IC50 of COc1cc2c(Oc3ccc(-c4cnc(Nc5ccc(F)cc5)n(C)c4=O)nc3)ccnc2cc1OCCCN1CCOCC1 ?
Result: 221

---

For each entry below, report its pIC50 value.
Test: Inhibition of P38 kinase
pIC50: −log10 of the molar value.

{"columns": ["chemical_smiles", "reported_result"],
 "data": [
  ["COc1cc2c(Oc3ccc(-c4cnc(Nc5ccc(F)cc5)n(C)c4=O)nc3)ccnc2cc1OCCCN1CCOCC1", "< 4.00"],
  ["COc1cc2c(Oc3ccc(-c4cnc(Nc5ccc(F)cc5)n(C)c4=O)cc3F)ccnc2cc1OCCCN1CCOCC1", 5.44]
]}

Continue with the molecule presented below.
Problem: Need pIC50 of COc1cc2c(Oc3ccc(-c4cnc(Cc5ccccc5)n(C)c4=O)cc3F)ccnc2cc1OCCCN1CCOCC1 , thanks.
Result: < 4.60
